# Test system: RT-112
# protocol-summary: Cellular Proliferation Assay (Cell Counting Kit-8), RT-112
# Type: cell-based
# conditions-used: Homo sapiens, RT-112 cells, 72 hours
Exercise: state measured IC50 for each of the compounds provided.
Your answer should be a number followed by the unit of measure.

> print(dat)
                                   compound  tested.on  value.kind  test.result
1  CNC(=O)c1cc(CCc2cnc(Nc3cnn(C(C)C)c3)nc2)c(Cl)c(OC)c1 [Compound 121]     RT-112        IC50        65 nM
2  CNC(=O)c1cc(OC)c(Cl)c(CCc2cnc(Nc3ccc(N4C[C@@H](C)N[C@@H](C)C4)cc3)nc2)c1F [Compound 91]     RT-112        IC50        64 nM
3  CCN1CCN(c2ccc(Nc3ncc(CCc4cc(C(=O)NC)cc(OC)c4F)cn3)cc2)CC1 [Compound 44]     RT-112        IC50        51 nM

# per-item lookup of IC50; items listed below
1. CNC(=O)c1cc(CCc2cnc(Nc3cnn(C4CCC4)c3)nc2)c(Cl)c(OC)c1 [Compound 81]
2. CCn1cc(Nc2ncc(CCc3cc(C(=O)NC)cc(OC)c3F)cn2)cn1 [Compound 100]
3. CCNC(=O)c1cc(COc2cnc(Nc3ccc(N4C[C@@H](C)N[C@@H](C)C4)cc3)nc2)c(F)c(OC)c1 [Compound 205]
4. CNC(=O)c1cc(CCc2cnc(Nc3cnn(CCN4CCCC4)c3)nc2)c(F)c(OC)c1 [Compound 135]

Response given:
1: 10 nM; 2: 94 nM; 3: 97 nM; 4: 230 nM

---

# tested-on: Recombinant human FGFR2 (Homo sapiens, UniProt P21802)
# Sequence (P21802 22-821): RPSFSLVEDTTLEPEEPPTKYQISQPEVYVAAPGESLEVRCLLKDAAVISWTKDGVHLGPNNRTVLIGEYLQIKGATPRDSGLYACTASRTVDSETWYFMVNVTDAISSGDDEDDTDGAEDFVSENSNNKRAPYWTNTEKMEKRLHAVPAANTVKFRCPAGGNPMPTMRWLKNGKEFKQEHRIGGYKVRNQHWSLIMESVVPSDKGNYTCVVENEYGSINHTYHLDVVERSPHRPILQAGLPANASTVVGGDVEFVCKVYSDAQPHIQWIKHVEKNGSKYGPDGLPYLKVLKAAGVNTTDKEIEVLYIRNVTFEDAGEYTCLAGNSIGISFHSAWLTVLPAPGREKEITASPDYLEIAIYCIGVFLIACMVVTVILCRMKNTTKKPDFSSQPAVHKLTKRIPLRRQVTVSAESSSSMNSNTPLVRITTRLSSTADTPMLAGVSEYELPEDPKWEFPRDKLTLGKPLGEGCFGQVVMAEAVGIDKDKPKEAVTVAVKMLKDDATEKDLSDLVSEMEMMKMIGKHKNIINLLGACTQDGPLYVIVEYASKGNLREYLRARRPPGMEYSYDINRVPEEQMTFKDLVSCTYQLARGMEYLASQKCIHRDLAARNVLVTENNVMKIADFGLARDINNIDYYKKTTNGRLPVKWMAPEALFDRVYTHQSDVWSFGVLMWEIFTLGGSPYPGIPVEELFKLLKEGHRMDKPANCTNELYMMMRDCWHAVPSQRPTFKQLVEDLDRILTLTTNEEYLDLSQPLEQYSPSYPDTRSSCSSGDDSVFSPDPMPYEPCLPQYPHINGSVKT
# protocol-summary: Transcreener Kinase Assay of FGFR2
# Assay type: biochemical
# conditions-used: read-out: FGFR2 (FP) IC50
Exercise: state measured pIC50 for each of the compounds provided.
Numbers only, as −log10 of the molar value.

> print(dat)
                                   compound  test.result
1  CNC(=O)c1cc(OC)c(Cl)c(CCc2cnc(Nc3ccc(N4C[C@@H](C)N[C@@H](C)C4)cc3)nc2)c1F [Compound 91]         7.80
2  CNC(=O)c1cc(COc2cnc(Nc3ccc(CC(=O)O)cc3)nc2)c(F)c(OC)c1 [Compound 207]         7.80
3  CNC(=O)c1cc(CCc2cnc(Nc3cnn(CC4CCN(C)CC4)c3)nc2)c(F)c(OC)c1 [Compound 137]         8.22
4  CNC(=O)c1cc(CCc2cnc(Nc3cnn([C@@H]4CCCNC4)c3)nc2)c(F)c(OC)c1 [Compound 159]         8.22
5  CCN1CCN(c2cccc(Nc3ncc(CCc4cc(OC)cc(C(=O)NOC)c4)cn3)c2)CC1 [Compound 14]         8.40
6  CCN(CC)CCn1cc(Nc2ncc(OCc3cc(C(=O)NC)cc(OC)c3F)cn2)cn1 [Compound 189]         7.70
7  CONC(=O)c1cc(CCc2cnc(Nc3ccccc3)nc2)cc(OC)c1 [Compound 22]         8.30
8  CCN1CCC[C@@H](n2cc(Nc3ncc(CCc4cc(C(=O)NC)cc(OC)c4F)cn3)cn2)C1 [Compound 174]         8.22

# per-item lookup of pIC50; items listed below
1. CCn1cc(Nc2ncc(CCc3cc(OC)cc(C(=O)NC)c3F)cn2)cn1 [Compound 27]
2. CNC(=O)c1cc(CCc2cnc(Nc3cc[n+]([O-])c(C)c3)nc2)c(F)c(OC)c1 [Compound 78]
3. CCN1CCN(c2ccc(Nc3ncc(CCc4cc(C(=O)NOC)cc5c4CCO5)cn3)cc2)CC1 [Compound 6]
4. CNC(=O)c1cc(C#Cc2cnc(Nc3ccc(N4C[C@@H](C)N[C@@H](C)C4)cc3)nc2)c(Cl)c(OC)c1 [Compound 222]
5. CONC(=O)c1cc(CCc2cnc(Nc3ccc(Cl)cc3)nc2)cc(OC)c1 [Compound 113]

Response given:
[7.38, 7.74, 6.01, 8.10, 7.74]

# per-item lookup of pIC50; items listed below
1. CNC(=O)c1cc(CCc2cnc(Nc3ccnc(OC)c3)nc2)c(F)c(OC)c1 [Compound 62]
2. CNC(=O)c1cc(CCc2cnc(Nc3ccc4c(c3)OCO4)nc2)c(F)c(OC)c1 [Compound 31]
3. CNC(=O)c1cc(CCc2cnc(Nc3ccn4cnnc4c3)nc2)c(F)c(OC)c1 [Compound 68]
4. CONC(=O)c1cc(CCc2cnc(Nc3ccc(N4C[C@@H](C)N[C@@H](C)C4)cc3)nc2)cc(OC)c1 [Compound 41]
5. CNC(=O)c1cc(CCc2cnc(Nc3cnn(C4CNC4)c3)nc2)c(F)c(OC)c1 [Compound 160]

Response given:
8.05
7.64
7.89
8.22
8.00

# per-item lookup of pIC50; items listed below
1. COc1cc(C(=O)NC2CC2)cc(CCc2cnc(Nc3cnn(C)c3)nc2)c1Cl [Compound 157]
2. CNC(=O)c1cc(COc2ccc(Nc3ccc(N4C[C@@H](C)N[C@@H](C)C4)cc3)nc2)c(F)c(OC)c1 [Compound 191]

Response given:
[8.00, 7.17]

# per-item lookup of pIC50; items listed below
1. CNC(=O)c1cc(CCc2cnc(Nc3ccc(N4C[C@@H](C)N[C@@H](C)C4)c(C)c3)nc2)c(Cl)c(OC)c1 [Compound 208]
2. CCN1CCN(c2ccc(Nc3ncc(CCc4cc(OC)cc(C(=O)NOC)c4)cn3)cc2)CC1 [Compound 17]

Response given:
1. 8.30
2. 8.22

# per-item lookup of pIC50; items listed below
1. CNC(=O)c1cc(CCc2cnc(Nc3cnn(CCOC)c3)nc2)c(F)c(OC)c1 [Compound 120]
2. CNC(=O)c1cc(CCc2cnc(Nc3cnn(C(F)F)c3)nc2)c(Cl)c(OC)c1 [Compound 149]
3. CONC(=O)c1cc(CCc2cnc(Nc3cnn(C)c3)nc2)cc(OC)c1 [Compound 23]
4. CONC(=O)c1cc(CCc2cnc(Nc3cn[nH]c3)nc2)cc(OC)c1 [Compound 101]
5. CCN1CCN(c2ccc(Nc3ncc(CCc4cc(OC)cc(C(=O)NC5CC5)c4)cn3)cc2)CC1 [Compound 46]
6. CCN1CCN(c2ccc(Nc3ncc(CCc4cc(OC)cc(C(=O)NOCCO)c4)cn3)cc2)CC1 [Compound 20]
7. CCNC(=O)c1cc(CCc2cnc(Nc3cnn(C)c3)nc2)c(Cl)c(OC)c1 [Compound 147]

Response given:
8.15
8.10
8.22
8.40
7.47
7.47
8.00
